# test.target: Recombinant human liver GK1 (GST-GK) (Homo sapiens)
# Construct: made in house; host or cells: E. coli
# Sequence (P35557 1-466 isoform P35557-2): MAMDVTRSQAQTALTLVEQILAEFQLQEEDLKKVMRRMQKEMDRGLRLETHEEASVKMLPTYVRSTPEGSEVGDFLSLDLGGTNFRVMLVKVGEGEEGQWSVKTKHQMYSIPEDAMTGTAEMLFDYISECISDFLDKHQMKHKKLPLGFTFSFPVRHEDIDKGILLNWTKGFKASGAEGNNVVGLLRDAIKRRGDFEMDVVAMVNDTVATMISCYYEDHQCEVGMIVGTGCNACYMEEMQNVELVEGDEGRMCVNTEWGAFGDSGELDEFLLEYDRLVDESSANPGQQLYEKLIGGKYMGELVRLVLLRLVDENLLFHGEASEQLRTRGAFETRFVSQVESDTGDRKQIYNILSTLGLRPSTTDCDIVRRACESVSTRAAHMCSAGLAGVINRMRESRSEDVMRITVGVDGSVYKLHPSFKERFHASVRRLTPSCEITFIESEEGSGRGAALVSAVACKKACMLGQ
# protocol: In vitro glucokinase activity (G6PDH-coupled NADH generation assay)
# Assay type: biochemical
# Set-up: unit not given here
# conditions.used: concentration of activator that produced a 50% increase in the activity of GK; 5 mM D-glucose, 30° C., pH 7.1, 10% DMSO
recorded.endpoint: SC 1.5:0.1

COC(=O)c1ccc(NC(=O)[C@H](CC(C)C)N2CC3=C(Oc4c(OC)ccc(OC)c4C3)C2=O)nc1 [Example 19] = 0.803

[A] COc1ccc(OC)c2c1CC1=C(O2)C(=O)N([C@@H](CC2CCCCC2)C(=O)Nc2ccc(Cl)cn2)C1 [Example 15]
[B] COc1ccc(OC)c2c1CC1=C(O2)C(=O)N([C@@H](CC(C)C)C(=O)Nc2ccc(Cl)cn2)C1 [Example 14]
Query block: Param pair: A , B . Output: the one whose SC 1.5:0.1 is numerically greater. The response must carry the label of the picked entry.
Result block: B
(B: 0.911, A: 0.428)
